The measured values listed here are drawn from ChEMBL document CHEMBL4513216.

test: Toxicity liver stage against HepG2, at 10uM; type: cell-based; set-up: test concentration 10 uM, cell line HepG2-A16-CD81EGFP; details: human, HepG2-A16-CD81EGFP cells; read-out: INHIBITION
recordedMetric: cytotoxicity at 10 µM (%)
Reply with just the number (in %).

Consider the reported cytotoxicity at 10 µM for these molecules:
{"columns": ["molecule", "reportedValue"],
 "data": [
  ["CNC(=O)CS(=O)(=O)C1CCN(S(=O)(=O)c2cccc(C(C)=O)c2)CC1", 5.85],
  ["Cc1nccn1CC1CCCN(C(=O)Cc2ccsc2)C1 (stereo unspecified)", 16.2],
  ["CCN(CC)Cc1ccccc1NC(=O)N(C)Cc1ccc(OC)cc1", 10.7],
  ["Cc1ccc(CN2CC[C@H]3[C@@H]2CCC(=O)N3CCN2CCCC2)s1", 3.01],
  ["CCc1[nH]c2c(CNc3cncc(C(=O)N(C)C)n3)cc(F)cc2c1C", 3.86],
  ["c1ccc(OCC2CC3(CCN(c4ncccn4)CC3)CO2)nc1 (stereo unspecified)", 0.485]
]}

Query block: I would be grateful if you could share the reported cytotoxicity at 10 µM for Cc1nn(C)cc1-c1cncn1CCN(C)C1CCCC1 .
Result block: -4.64

* * *

Listed next: entries and their corresponding cytotoxicity at 10 µM.
assay: Toxicity liver stage against HepG2, at 10uM; assay type: cell-based; parameters: test concentration 10 uM, cell line HepG2-A16-CD81EGFP; conditions: human, HepG2-A16-CD81EGFP cells; read-out: INHIBITION
Reply with just the number (in %).

Consider the reported cytotoxicity at 10 µM for these compounds:
{"columns": ["compound", "cytotoxicity at 10 µM [%]"],
 "data": [
  ["O=C(CCc1ccc2c(c1)CCO2)Nc1nnn[nH]1", 0.301],
  ["COc1cccc(NC(=O)NCC(Cc2cnn(C)c2)C(N)=O)c1 (configuration not stated)", -6.52],
  ["NC(=O)c1cncc(N2CCN(Cc3ccc(F)cc3Cl)CC2)n1", 11.8],
  ["Cc1ccc(S(=O)(=O)Nc2cccnc2O)cc1C", 3.33],
  ["CS(=O)(=O)NC1CCN(C(=O)CCn2cccn2)CC1", -7.74]
]}

Query block: I would be grateful if you could share the reported cytotoxicity at 10 µM for Cc1cccnc1N1CCN(C(=O)CCc2ccccn2)CC1 .
Result block: -12.1

Query block: I would be grateful if you could share the reported cytotoxicity at 10 µM for CS(=O)(=O)Cc1ccc(CNC(=O)c2cccnc2O)cc1 .
Result block: 0.481

Query block: I would be grateful if you could share the reported cytotoxicity at 10 µM for CCc1nccn1-c1cncc(C2CCN(C(=O)COC)CC2)n1 .
Result block: -37.3

Query block: I would be grateful if you could share the reported cytotoxicity at 10 µM for Cc1ccccc1OCCC(=O)OC(C)C(=O)Nc1sccc1C(N)=O (configuration not stated) .
Result block: 19.4

Query block: I would be grateful if you could share the reported cytotoxicity at 10 µM for Cc1nc(CN2CCOCC3(CCN(c4ncccn4)C3)C2)cs1 (configuration not stated) .
Result block: -22.8

Query block: I would be grateful if you could share the reported cytotoxicity at 10 µM for CNc1cc2c(nn1)CCN(C(=O)c1cc(C)no1)C2 .
Result block: -15.8

Query block: I would be grateful if you could share the reported cytotoxicity at 10 µM for COCC(C)N1CCc2onc(-c3ccc(C(F)(F)F)cc3)c2C1 (configuration not stated) .
Result block: -6.45

* * *

experiment: Toxicity liver stage against HepG2, at 10uM; type: cell-based; design: test concentration 10 uM, cell line HepG2-A16-CD81EGFP; conditions: human, HepG2-A16-CD81EGFP cells; read-out: INHIBITION
recordedMetric: cytotoxicity at 10 µM (%)
Reply with just the number (in %).

Consider the reported cytotoxicity at 10 µM for these compounds:
{"columns": ["compound", "unitAbbreviation", "cytotoxicity at 10 µM"],
 "data": [
  ["COc1ccc2c(ccn2CCCN)c1", "%", -3.91],
  ["Cc1nc(-c2ccc(CC(=O)N3CCN(C(=O)C(C)C)CC3)cc2)cs1", "%", 12.8],
  ["Cn1nc(C#N)c2c1CN(C(=O)c1ccsc1)CCC2", "%", -126],
  ["Cn1cc(C(=O)CC2CCCN2C(=O)c2cccc3ncccc23)cn1 (stereo not drawn)", "%", 6.19],
  ["Cc1nc(CN2C(=O)COC3(CCN(Cc4ccco4)CC3)C2C)cs1 (stereo not drawn)", "%", -13.5]
]}

Query block: I would be grateful if you could share the reported cytotoxicity at 10 µM for CC(=O)N1N=C(c2ccccc2)OC1C(=O)NCCc1cccc(F)c1 (stereo not drawn) .
Result block: -1.08

Query block: I would be grateful if you could share the reported cytotoxicity at 10 µM for CN1CCC(N(C)CCC(=O)N2CCC(Oc3ccc(Cl)cc3)CC2)C1 (stereo not drawn) .
Result block: 7.04

Query block: I would be grateful if you could share the reported cytotoxicity at 10 µM for CC(C)N1CCc2[nH]nc(C(=O)N3CCN(C)CC3)c2C1 .
Result block: -3.75

Query block: I would be grateful if you could share the reported cytotoxicity at 10 µM for CS(=O)(=O)NCCC(=O)NC1(c2ccc(F)cc2)CCCC1 .
Result block: -1.1

Query block: I would be grateful if you could share the reported cytotoxicity at 10 µM for CC(C)Cc1cc(C(=O)NCC(O)CN2CCCCCC2)on1 (stereo not drawn) .
Result block: -1.53

Query block: I would be grateful if you could share the reported cytotoxicity at 10 µM for N#Cc1ccc(N2CCCC3(CCN(c4cncnc4)C3=O)C2)nc1 (stereo not drawn) .
Result block: -97.6

Query block: I would be grateful if you could share the reported cytotoxicity at 10 µM for CN(C)C(=O)N1CC2(CCN(S(=O)(=O)C3CC3)CC2)c2ccccc21 .
Result block: -110

Query block: I would be grateful if you could share the reported cytotoxicity at 10 µM for O=C1CCCC2(CCN(C(=O)c3ccccn3)CC2)N1 .
Result block: 3.03

Query block: I would be grateful if you could share the reported cytotoxicity at 10 µM for COCCCN(Cc1ccccn1)S(=O)(=O)Cc1ccccc1 .
Result block: 14.4

Query block: I would be grateful if you could share the reported cytotoxicity at 10 µM for CNS(=O)(=O)CCn1cc(-c2ccc(NC(C)=O)cc2)nn1 .
Result block: -4.5

Query block: I would be grateful if you could share the reported cytotoxicity at 10 µM for Cc1cc(NC(=O)NC2CCN(C(C)C)CC2)c2ncccc2c1 .
Result block: 9.67

Query block: I would be grateful if you could share the reported cytotoxicity at 10 µM for O=C(O)CN1CCCC2(CCN2Cc2cccc(F)c2)C1 (stereo not drawn) .
Result block: -108

Query block: I would be grateful if you could share the reported cytotoxicity at 10 µM for O=C(NCCN1CCOCC1)c1ccc(-c2ccccc2)[nH]c1=O .
Result block: 1.58

* * *

experiment: Toxicity liver stage against HepG2, at 10uM; assay type: cell-based; parameters: test concentration 10 uM, cell line HepG2-A16-CD81EGFP; conditions: human, HepG2-A16-CD81EGFP cells; read-out: INHIBITION
recordedMetric: cytotoxicity at 10 µM (%)
Reply with just the number (in %).

{"columns": ["molecule", "cytotoxicity at 10 µM (%)"],
 "data": [
  ["Cn1cc(S(=O)(=O)NCC2CCN(C(=O)c3ccoc3)CC2)cn1", -3.82]
]}

Query block: I would be grateful if you could share the reported cytotoxicity at 10 µM for CC(C)CCNC(=O)C1CCCN1C(=O)Nc1cccc(F)c1 (stereo not given) .
Result block: -1.04

* * *

Listed next: entries and their corresponding cytotoxicity at 10 µM.
assay: Toxicity liver stage against HepG2, at 10uM; format: cell-based; design: test concentration 10 uM, cell line HepG2-A16-CD81EGFP; conditions: human, HepG2-A16-CD81EGFP cells; read-out: INHIBITION
Reply with just the number (in %).

Consider the reported cytotoxicity at 10 µM for these molecules:
{"columns": ["molecule", "cytotoxicity at 10 µM [%]"],
 "data": [
  ["OC(COc1ccc(F)cc1)CN1CCC(c2ccn[nH]2)CC1 (stereo not drawn)", 0.923],
  ["CC(=O)N1CCC(C(=O)NC(C)c2cccc(OC(F)F)c2)CC1 (stereo not drawn)", -8.2],
  ["COCC(=O)N1CCC(C(=O)N(C)CCCc2nccn2C)CC1", -1.81],
  ["CCCc1cc(NCc2ccc(CO)cc2)n2nccc2n1", -14.1],
  ["CCOCC(=O)Nc1cc(-n2nnnc2C2CC2)ccc1F", -4.28],
  ["CCc1ccc(-c2cn3c(C(=O)NCC(C)C(=O)NC)csc3n2)cc1 (stereo not drawn)", 9.21]
]}

Query block: I would be grateful if you could share the reported cytotoxicity at 10 µM for Cc1c(OCC(=O)NCc2ccccc2Cl)c(=O)ccn1C .
Result block: -40.5

Query block: I would be grateful if you could share the reported cytotoxicity at 10 µM for COCCOc1ncccc1C(=O)N1CCCC1Cn1cc(C)cn1 (stereo not drawn) .
Result block: -2.95

Query block: I would be grateful if you could share the reported cytotoxicity at 10 µM for CN(C)C(=O)CN1CCCCC1c1nc(N)ncc1-c1ccccc1 (stereo not drawn) .
Result block: 4.19
